The reported numbers originate from ChEMBL document CHEMBL5537200.

measurementTarget: Prostaglandin E synthase 2 (Homo sapiens)
measurementProtocol: Inhibition of heme-free recombinant mPGES-2 (unknown origin) pre-incubated with compound for 15 mins followed by PGH2 addition measured after 30 min by ELISA
readoutKind: IC50

In [3]: df
Out[3]:
                                   compound  result
0  C[C@@H]1CC[C@H]2[C@@H](C)C(=O)O[C@@H]3O[C@@]4(C)CC[C@@H]1[C@]32OO4 [ARTEMISININ]  8.9 µM

---

measurementTarget: Prostaglandin E synthase 2 (Homo sapiens, UniProt Q9H7Z7)
Sequence (Q9H7Z7 whole entry): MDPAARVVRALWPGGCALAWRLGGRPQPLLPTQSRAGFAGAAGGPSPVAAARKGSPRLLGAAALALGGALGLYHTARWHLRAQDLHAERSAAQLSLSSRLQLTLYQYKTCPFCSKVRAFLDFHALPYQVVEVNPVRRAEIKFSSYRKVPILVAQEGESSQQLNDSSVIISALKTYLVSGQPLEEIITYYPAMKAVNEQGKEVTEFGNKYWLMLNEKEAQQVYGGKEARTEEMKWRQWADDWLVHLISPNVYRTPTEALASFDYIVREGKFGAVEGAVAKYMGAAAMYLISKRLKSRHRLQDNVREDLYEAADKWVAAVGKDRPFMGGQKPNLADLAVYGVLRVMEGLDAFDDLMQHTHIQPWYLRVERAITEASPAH
measurementProtocol: Inhibition of heme-free recombinant mPGES-2 (unknown origin) pre-incubated with compound for 15 mins followed by PGH2 addition measured after 60 min by ELISA
pIC50: −log10 of the molar value.
readoutKind: pIC50

                                   compound  recordednumber
0  C[C@@H]1CC[C@H]2[C@@H](C)C(=O)O[C@@H]3O[C@@]4(C)CC[C@@H]1[C@]32OO4 [ARTEMISININ]            5.06
